# TARGET_SYSTEM: hPDE10A (Homo sapiens, UniProt Q9Y233)
# Sequence (Q9Y233 290-1055 limits assumed): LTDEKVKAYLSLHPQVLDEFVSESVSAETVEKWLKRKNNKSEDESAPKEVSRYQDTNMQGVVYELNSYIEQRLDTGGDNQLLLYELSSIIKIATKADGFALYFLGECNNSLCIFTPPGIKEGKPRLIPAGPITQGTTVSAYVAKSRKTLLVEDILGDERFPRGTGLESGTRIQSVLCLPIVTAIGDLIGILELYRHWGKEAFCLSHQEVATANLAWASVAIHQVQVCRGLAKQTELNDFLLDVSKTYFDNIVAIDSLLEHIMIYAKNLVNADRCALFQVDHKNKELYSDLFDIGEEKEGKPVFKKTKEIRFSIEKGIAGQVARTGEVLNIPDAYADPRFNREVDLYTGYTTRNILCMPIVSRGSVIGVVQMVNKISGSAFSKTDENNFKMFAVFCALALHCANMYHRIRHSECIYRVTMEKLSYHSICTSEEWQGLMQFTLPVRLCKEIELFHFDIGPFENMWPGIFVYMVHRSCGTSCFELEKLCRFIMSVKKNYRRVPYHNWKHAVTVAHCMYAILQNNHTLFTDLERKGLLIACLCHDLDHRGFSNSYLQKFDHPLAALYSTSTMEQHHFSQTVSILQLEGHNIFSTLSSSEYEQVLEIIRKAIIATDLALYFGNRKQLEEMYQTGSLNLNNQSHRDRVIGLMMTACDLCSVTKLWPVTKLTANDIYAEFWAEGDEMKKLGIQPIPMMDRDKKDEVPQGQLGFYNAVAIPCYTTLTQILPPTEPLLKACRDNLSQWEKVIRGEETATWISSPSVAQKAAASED
# ASSAY_PROCEDURE: PDE10 inhibition assay (IC50), Experimental Example 3
# Format: biochemical
# ASSAY_SETUP: at 10 μmol/L; read-out: inhibition rate (%) at prescribed concentration, PDE10
MEASURE_NAME: inhibition at 10 µM (%)

COMPOUND	inhibition at 10 µM, %
Nc1nccn2c(C3CCCCC3)nnc12	30
Nc1nccn2c(N3CCCCC3)nnc12	39
Nc1nccn2c(C3[C@H]4CCCC[C@@H]34)nnc12 (stereo partly shown)	41
Nc1nccn2c(C3CCCCC3)ncc12	41
